B1: CSTF3 (parent)
chain: YVPEKVKKAEKKLEENPYDLDAWS

Variants of: B1
assay_details: protein stability index of a GFP-peptide fusion (GPS, HEK-293T) (PSI 1-6); higher = more stable;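 note: lentivirally expressed fusions sorted by FACS into six bins by GFP to DsRed ratio, PSI derived from sequencing read proportions per bin multiplied by bin number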
assay_context: c terminus: a fixed tail appended
Below, each entry is listed with its recorded protein stability index.
Keep it simple and answer with nothing but the number.

Below, each entry is followed by its recorded protein stability index result.
NVPEKVKKAEKKLEENPYDLDAWS [Y1N]; 5.14
YVPEKVKKAIKKLEENPYDLDAWS [E10I]; 1.86
YVPEKVKKAEKKLEENPYDLDANS [W23N]; 3.51
YVPEKVAKAEKKLEENPYDLDAWS [K7A]; 2.17
YVPEKQKKAEKKLEENPYDLDAWS [V6Q]; 2.35
YVPEKVKKQEKKLEENPYDLDAWS [A9Q]; 2.11

In plain terms, YVPEKVKHAEKKLEENPYDLDAWS [K8H] has a documented protein stability index of 2.27

In plain terms, YVPEKVKKAEKKLEENPYDLDATS [W23T] has a documented protein stability index of 2.64

In plain terms, YVPEKVHKAEKKLEENPYDLDAWS [K7H] has a documented protein stability index of 3.08

The measured values listed here are drawn from the supplement of paper PMC10567573.
